test system: HBV rcDNA; experiment: HepDE19 assay with bDNA quantitation of HBV rcDNA; assay type: cell-based, hepatitis B virus; settings: HepDE19 cells, Tet-free medium, 7 day-incubation, rcDNA measured by Quantigene 2.0 bDNA assay, top concentration 25 μM; read-out: DE-19 bDNA EC50
// reported log10 of EC50 for each item listed
Property name: log10 of EC50 (log10 of the value in nM)

• Cn1cc(COC(=O)NC2CCc3c2cn(C)c3C(=O)Nc2ccc(F)c(Cl)c2)nn1 (single isomer, unassigned) [Compound 116] = 1.70
• Cn1cnc(COC(=O)NC2CCc3c2c(C2CCC2)n(C)c3C(=O)Nc2ccc(F)c(Cl)c2)n1 (single isomer, unassigned) [Compound 96] = 2.62
• Cc1c2c(c(C(=O)Nc3ccc(F)c(Cl)c3)n1C)CCC2NC(=O)OCc1c[nH]nn1 (single isomer, unassigned) [Compound 131] = 3.23
• Cc1c2c(c(C(=O)Nc3ccc(F)c(Cl)c3)n1C)CCC2NC(=O)OCc1ncn(C)n1 (single isomer, unassigned) [Compound 83] = 3.52
• Cc1n[nH]nc1COC(=O)NC1CCc2c1cn(C)c2C(=O)Nc1ccc(F)c(Cl)c1 (single isomer, unassigned) [Compound 138] = 2.93
• Cn1cnc(COC(=O)NC2CCc3c2c(C(F)(F)F)n(C)c3C(=O)Nc2ccc(F)c(Cl)c2)n1 (stereo not drawn) [Compound 123] = 3.90
